# Assayed system: RORc ligand binding domain (Homo sapiens)
# Sequence (P51449 269-508 limits assumed): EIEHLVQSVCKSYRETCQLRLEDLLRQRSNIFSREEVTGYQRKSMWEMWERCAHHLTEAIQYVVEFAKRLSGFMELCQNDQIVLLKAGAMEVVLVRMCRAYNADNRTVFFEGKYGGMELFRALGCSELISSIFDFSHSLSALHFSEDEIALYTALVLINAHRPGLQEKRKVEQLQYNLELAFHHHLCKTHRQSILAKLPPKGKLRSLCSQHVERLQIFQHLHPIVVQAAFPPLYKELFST
The following compounds are listed with their measured IC50 values.
# output: bare number, implied unit nM

Previously resolved entries follow.
Structure as smiles	Assayed system	IC50, nM
CC1(C)[C@H]2CC[C@]1(c1ccnc(NCC3(O)COC3)n1)c1nnc(-c3c(F)cccc3F)cc12	RORc ligand binding domain (Homo sapiens)	33.2
CC1(C)[C@H]2CC[C@]1(c1cncc(C(=O)N[C@@H]3COC(=O)C3)n1)c1nnc(-c3c(F)cccc3F)cc12	RORc ligand binding domain (Homo sapiens)	27.2
CNC(=O)c1cccc([C@@]23CC[C@@H](c4cc(-c5c(F)cccc5F)nnc42)C3(C)C)n1	RORc ligand binding domain (Homo sapiens)	20.5
CC1(C)[C@H]2CC[C@]1(c1cncc(-c3n[nH]c(=O)o3)n1)c1nnc(-c3c(F)cccc3F)cc12	RORc ligand binding domain (Homo sapiens)	21
CC1(C)[C@H]2CC[C@]1(c1cccc(NC(=O)CO)n1)c1nnc(-c3c(F)cccc3F)cc12	RORc ligand binding domain (Homo sapiens)	13.7

IC50 reported for this compound CC1(C)[C@H]2CC[C@]1(c1nccc(-c3ccn[nH]3)n1)c1nnc(-c3c(F)cccc3F)cc12 : 9.9

IC50 reported for this compound CC1(C)[C@H]2CC[C@]1(c1cncc(C(=O)NCc3nnc[nH]3)n1)c1nnc(-c3c(F)cccc3F)cc12 : 65.5

IC50 reported for this compound CC1(C)[C@H]2CC[C@]1(c1cnc(C(N)=O)cn1)c1nnc(-c3c(F)cccc3F)cc12 : 4270

IC50 reported for this compound CC(C)(O)c1nc(-c2cncc([C@@]34CC[C@@H](c5cc(-c6c(F)cccc6F)nnc53)C4(C)C)n2)c[nH]1 : 13.6

IC50 reported for this compound CC1(C)[C@H]2CC[C@]1(c1ccnc(-n3ccc(=O)[nH]3)n1)c1nnc(-c3c(F)cccc3F)cc12 : 15

IC50 reported for this compound CC1(C)[C@H]2CC[C@]1(c1cccc(NS(C)(=O)=O)n1)c1nnc(-c3c(F)cccc3F)cc12 : 11.2

IC50 reported for this compound CC1(C)[C@H]2CC[C@]1(c1cncc(-n3ccncc3=O)n1)c1nnc(-c3c(F)cccc3F)cc12 : 39.5

IC50 reported for this compound Cc1nnc(-c2ccnc([C@@]34CC[C@@H](c5cc(-c6c(F)cccc6F)nnc53)C4(C)C)n2)[nH]1 : 36.6

IC50 reported for this compound CC1(C)[C@H]2CC[C@]1(c1ccnc(-c3nnc(CO)[nH]3)n1)c1nnc(-c3c(F)cccc3F)cc12 : 28

IC50 reported for this compound CC1(C)[C@H]2CC[C@]1(c1cncc(F)c1)c1nnc(-c3c(F)cccc3F)cc12 : 7.4

IC50 reported for this compound CC1(C)[C@H]2CC[C@]1(c1cncc(-c3ccc(CS(C)(=O)=O)nc3)n1)c1nnc(-c3c(F)cccc3F)cc12 : 5

IC50 reported for this compound CC1(C)[C@H]2CC[C@]1(c1cncc(-c3ccn(CCC#N)n3)n1)c1nnc(-c3c(F)cccc3F)cc12 : 10.9

IC50 reported for this compound Cc1nc(C)n(-c2nccc([C@@]34CC[C@@H](c5cc(-c6c(F)cccc6F)nnc53)C4(C)C)n2)n1 : 15.2

* * *

# Assayed system: RORc ligand binding domain (Homo sapiens, UniProt P51449)
# Sequence (P51449 269-508 limits assumed): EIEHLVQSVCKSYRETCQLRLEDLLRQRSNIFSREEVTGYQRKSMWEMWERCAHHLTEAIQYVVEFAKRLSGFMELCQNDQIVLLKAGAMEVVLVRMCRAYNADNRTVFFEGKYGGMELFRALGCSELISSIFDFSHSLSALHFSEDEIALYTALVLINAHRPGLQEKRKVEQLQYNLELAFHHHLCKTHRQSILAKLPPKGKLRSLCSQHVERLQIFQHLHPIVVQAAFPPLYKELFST
Mark MET only when IC50 stays strictly below 10 nM. Values equal to the cut-off are NOT MET.

Query: I'd appreciate it if you could check whether C[C@H](O)Cc1n[nH]c(-c2cccc([C@@]34CC[C@@H](c5cc(-c6c(F)cccc6F)nnc53)C4(C)C)n2)n1 has IC50 smaller than 10 nM.
Reply: NOT MET

* * *

# Assayed system: RORc ligand binding domain (Homo sapiens)
# Sequence (P51449 269-508 limits assumed): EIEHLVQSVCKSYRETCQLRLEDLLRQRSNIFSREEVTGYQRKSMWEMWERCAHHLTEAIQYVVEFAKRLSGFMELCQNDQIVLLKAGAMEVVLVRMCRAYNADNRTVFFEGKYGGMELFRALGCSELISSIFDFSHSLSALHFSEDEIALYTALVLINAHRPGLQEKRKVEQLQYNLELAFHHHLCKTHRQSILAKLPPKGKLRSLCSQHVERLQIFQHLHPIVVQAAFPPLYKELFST
The following molecules are listed with their measured pIC50 values.
In textbook form, pIC50 equals minus log to base ten of the concentration in mol/L.

Molecule	Assayed system	Data value
C[C@H](O)c1nnc(-c2cccc([C@@]34CC[C@@H](c5cc(-c6c(F)cccc6F)nnc53)C4(C)C)n2)[nH]1 [Example 222]	RORc ligand binding domain (Homo sapiens)	7.96
COC(=O)c1nc(C)cc([C@@]23CC[C@@H](c4cc(-c5c(F)cccc5F)nnc42)C3(C)C)n1 [Example 176]	RORc ligand binding domain (Homo sapiens)	7.89
CC1(C)[C@H]2CC[C@]1(c1cc(C(=O)NC3COC3)ccn1)c1nnc(-c3c(F)cccc3F)cc12 [Example 65]	RORc ligand binding domain (Homo sapiens)	6.98

pIC50 reported for this molecule CC1(C)[C@H]2CC[C@]1(c1ccnc(-n3cnc(C#N)n3)n1)c1nnc(-c3c(F)cccc3F)cc12 [Example 220] : 7.60

* * *

# Assayed system: RORc ligand binding domain (Homo sapiens, UniProt P51449)
# Sequence (P51449 269-508 limits assumed): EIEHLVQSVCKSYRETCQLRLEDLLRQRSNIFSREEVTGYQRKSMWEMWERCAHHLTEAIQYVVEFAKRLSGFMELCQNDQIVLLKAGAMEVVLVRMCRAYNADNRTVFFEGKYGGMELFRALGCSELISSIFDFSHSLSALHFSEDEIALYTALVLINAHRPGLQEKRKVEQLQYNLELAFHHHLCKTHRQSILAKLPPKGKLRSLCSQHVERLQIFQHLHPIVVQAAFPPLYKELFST
Mark yes (1) only when IC50 stays strictly below 10 nM. Values equal to the cut-off are no (0).

Structure as smiles	Assayed system	Assigned category
CC1(C)[C@H]2CC[C@]1(c1cncc(CNS(C)(=O)=O)n1)c1nnc(-c3c(F)cccc3F)cc12	RORc ligand binding domain (Homo sapiens, UniProt P51449)	no (0)
C[C@@H](O)Cc1n[nH]c(-c2cncc([C@@]34CC[C@@H](c5cc(-c6c(F)cccc6F)nnc53)C4(C)C)n2)n1	RORc ligand binding domain (Homo sapiens, UniProt P51449)	no (0)
CC1(C)[C@H]2CC[C@]1(c1cncc(C(=O)NCC3(O)COC3)n1)c1nnc(-c3c(F)cccc3F)cc12	RORc ligand binding domain (Homo sapiens, UniProt P51449)	no (0)
CC1(C)[C@H]2CC[C@]1(c1ccnc(-n3cnc(C(F)(F)F)n3)n1)c1nnc(-c3c(F)cccc3F)cc12	RORc ligand binding domain (Homo sapiens, UniProt P51449)	yes (1)
CC1(C)[C@H]2CC[C@]1(c1cncc(-c3cnc(=O)[nH]c3)n1)c1nnc(-c3c(F)cccc3F)cc12	RORc ligand binding domain (Homo sapiens, UniProt P51449)	no (0)

Now for another entry.
Query: I'd appreciate it if you could check whether CC1(C)[C@H]2CC[C@]1(c1cncc(C3(O)COC3)n1)c1nnc(-c3c(F)cccc3F)cc12 has IC50 smaller than 10 nM.
Reply: no (0)

* * *

# Assayed system: RORc ligand binding domain (Homo sapiens, UniProt P51449)
# Sequence (P51449 269-508 limits assumed): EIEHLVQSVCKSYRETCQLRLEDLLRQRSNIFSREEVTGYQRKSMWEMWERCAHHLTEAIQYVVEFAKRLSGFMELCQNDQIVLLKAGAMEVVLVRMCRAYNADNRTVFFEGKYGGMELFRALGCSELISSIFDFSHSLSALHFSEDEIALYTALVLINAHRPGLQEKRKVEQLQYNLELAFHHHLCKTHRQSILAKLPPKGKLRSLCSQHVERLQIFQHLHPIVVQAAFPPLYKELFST
Attribute measured: IC50

Compound	Assayed system	IC50
CC1(C)[C@H]2CC[C@]1(c1cncc(-c3noc(=O)[nH]3)n1)c1nnc(-c3c(F)cccc3F)cc12 [Example 125]	RORc ligand binding domain (Homo sapiens, UniProt P51449)	20.9 nM

IC50 reported for this compound CC1(C)[C@H]2CC[C@]1(c1cc(NS(C)(=O)=O)ccn1)c1nnc(-c3c(F)cccc3F)cc12 [Example 78] : 1190 nM

IC50 reported for this compound CC(C)(O)CNC(=O)c1ccnc([C@@]23CC[C@@H](c4cc(-c5c(F)cccc5F)nnc42)C3(C)C)c1 [Example 77] : 139 nM
